From: patent US4448962A

# Tested on: Ps. aeruginosa IID 1210
# assay details: Antibacterial spectrum (Minimum Inhibitory Concentration)
# Assay type: cell-based
# settings: Pseudomonas aeruginosa, IID1210; Ps. aeruginosa IID 1210, Gram -; read-out: Minimum Inhibitory Concentration
Structures can show the parent of a compound that is named as a salt.

molecule	MIC
C=Cn1cc(C(=O)O)c(=O)c2cc(F)c(N3CCN(C)CC3)cc21.Cl	3.13 mg/L
CN1CCN(c2cc3c(cc2F)c(=O)c(C(=O)O)cn3CCF)CC1	6.25 mg/L
CCn1cc(C(=O)O)c(=O)c2cc(Br)c(N3CCN(C)CC3)cc21	> 100 mg/L
CCn1cc(C(=O)O)c(=O)c2cc(Br)c(N3CCNCC3)cc21 [Example 22, hydrochloride]	100 mg/L
CCn1cc(C(=O)O)c(=O)c2cnc(N3CCNCC3)nc21 [Pipemidic acid, reference compound]	50 mg/L
CCn1cc(C(=O)O)c(=O)c2cc(F)c(N3CCN(Cc4ccc(N)cc4)CC3)cc21.Cl	25 mg/L
CCn1cc(C(=O)O)c(=O)c2cc(F)c(N3CCNC(=O)C3)cc21	> 25 mg/L
CCn1cc(C(=O)O)c(=O)c2cc(F)c(N3CCN(C4OC(=O)c5ccccc54)CC3)cc21 (stereo not drawn)	1.56 mg/L
CCn1cc(C(=O)O)c(=O)c2cc(F)c(N3CCNCC3)nc21.Cl	6.25 mg/L

###

# System: Proteus vulgaris IFO 3167
# assay details: Antibacterial spectrum (Minimum Inhibitory Concentration)
# Assay type: cell-based
# settings: Proteus vulgaris, IFO3167, read-out: Minimum Inhibitory Concentration

compound	MIC
CN1CCN(c2cc3c(cc2F)c(=O)c(C(=O)O)cn3CCF)CC1	< 0.1 µg/mL
Cl.O=C(O)c1cn(CCF)c2cc(N3CCNCC3)c(F)cc2c1=O	0.2 µg/mL
CCn1cc(C(=O)O)c(=O)c2ccc(C)nc21 [Nalidixic, nalidixic acid, reference compound]	3.13 µg/mL
Cl.O=C(O)c1cn(CCO)c2cc(N3CCNCC3)c(F)cc2c1=O	0.2 µg/mL

###

# System: Proteus vulgaris IFO 3167
# assay details: Antibacterial spectrum (Minimum Inhibitory Concentration)
# Format: cell-based
# settings: Proteus vulgaris, IFO3167, read-out: Minimum Inhibitory Concentration
Below, each entry is listed with its recorded MIC.

compound string	MIC [µg/mL]
Cl.Cn1cc(C(=O)O)c(=O)c2cc(F)c(N3CCNCC3)cc21	0.39
CCn1cc(C(=O)O)c(=O)c2cc(F)c(N3CCN(Cc4ccc([N+](=O)[O-])cc4)CC3)cc21	6.25
C=Cn1cc(C(=O)O)c(=O)c2cc(F)c(N3CCN(C)CC3)cc21.Cl	0.2
C=Cn1cc(C(=O)O)c(=O)c2cc(F)c(N3CCNCC3)cc21.Cl	0.2

###

# Test system: Ps. aeruginosa IFO 12689
# assay details: Antibacterial spectrum (Minimum Inhibitory Concentration)
# Assay type: cell-based
# settings: Pseudomonas aeruginosa, IFO12689, read-out: Minimum Inhibitory Concentration
Structures can show the parent of a compound that is named as a salt.

molecule	qualifier	MIC, µg/mL
Cl.Cn1cc(C(=O)O)c(=O)c2cc(F)c(N3CCNCC3)cc21 [Example 18]	=	3.13
Cl.O=C(O)c1cn(CCO)c2cc(N3CCNCC3)c(F)cc2c1=O [Example 25]	>	25
CCN1CCN(c2cc3c(cc2F)c(=O)c(C(=O)O)cn3CC)CC1 [Example 2]	=	6.25
C=CCn1cc(C(=O)O)c(=O)c2cc(F)c(N3CCNCC3)cc21 [Example 21, hydrochloride]	=	6.25
Cl.O=C(O)c1cn(CCF)c2cc(N3CCNCC3)c(F)cc2c1=O [Example 5]	=	3.13
